Target: T1, mouse His6-GITR (mouse, UniProt O35714 20-153)
T1 construct: His6-tagged recombinant protein; also called mGITR-His; mouse GITR-His
T1 sequence: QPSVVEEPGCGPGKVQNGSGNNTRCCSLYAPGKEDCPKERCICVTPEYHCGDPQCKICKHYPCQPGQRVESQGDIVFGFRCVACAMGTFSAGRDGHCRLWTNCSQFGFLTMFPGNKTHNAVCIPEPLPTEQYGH
Assay: ELISA, scFv periplasmic extract on coated His6-GITR
Recorded measurements of mGITR-His/BKG, one per entry
Lab book: enter the figure in fold over background, no units written.

Example results:
{"binder": "GITR-Mab-7 scFv (scFv, V domains shown, scFv in periplasmic extract, V5 tag) VH: QVQLVQSGAEVKKPGASVKVSCKASGGTSSTYAVTWVRQAPGQGLEWMGVINPNDGSTTYAQNFQGRVTMTRDTSTSTVYMELSSLRSEDTAVYYCARWTPLFGVVIPDYYYYGMDVWGQGTLVTVSS VL: DIQMTQSPSSLSASVGDRVTITCQASQDISNYLNWYQQKPGKAPKLLIYAASSLQSGVPSRFSGSGSGTDFTLTISSLQPEDFATYYCQQSYSTPPTFGQGTRLEIK", "unit.of.measure": "fold over background", "mGITR-His/BKG": 1}
{"binder": "GITR-Mab-16 scFv (scFv, V domains shown, scFv in periplasmic extract, V5 tag) VH: QVQLVQSGAEVKKPGASVKVSCKASGGTLSSYAISWVRQAPGQGLEWMGWIDPNSGGTNYAQKFQGRVTMTRDTSTSTVYMELSSLRSEDTAVYYCARQGLLWFGESGSIYYYYGMDVWGQGTTVTVSS VL: DIQMTQSPSSLSASVGDRVTITCRASRSISNYLNWYQQKPGKAPKLLIYGASSLQSGVPSRFSGSGSGTDFTLTISSLQPEDFATYYCQQSYSTLVTFGQGTKVEIK", "unit.of.measure": "fold over background", "mGITR-His/BKG": 0.8}

Next:
Request: So what does the record say about mGITR-His/BKG for GITR-Mab-25 scFv (scFv, V domains shown, scFv in periplasmic extract, V5 tag) VH: QVQLVQSGAEVKKPGASVKVSCKASGGTFSSYAISWVRQAPGQGLEWMGWVSGYNGNANYAQKFQGRVTMTRDTSTSTVYMELSSLRSEDTAVYYCARDRVESGYSYHDAFDIWGQGTMVTVSS VL: DIQMTQSPSSLSASVGDRVTITCRTSQSIRRYLNWYQQKPGKAPKLLIYAASSLQSGVPSRFSGSGSGTDFTLTISSLQPEDFATYYCQQSYSIPWTFGPGTKVDIK ?
Response: 1.1
